Origin of values: PubChem BioAssay (NCI)

Please respond with reported growth for every item in the list.
Test system: NCI/ADR-RES ovarian
procedure-details: NCI-60 one-dose screen, 48 h (100 = growth as untreated, 0 = no growth, -100 = all killed)
protocol-conditions: 10 µM unless noted
About 83,000 compounds went through this panel and 20% of them were active in at least one assay; those are over-represented in the sample as a whole.
Answers are plain numbers, in %.

Here are 4 compounds together with their reported answers.
compound	observed-measurement
Cc1[nH]c(=O)[nH]c(=O)c1Br	97.8
Nc1ncnc2c1C(c1ccccc1)c1ccc3ccccc3c1O2 (stereo unspecified)	80.9
CCN(CC)CCCCCNc1cc(OC(=O)c2ccc(Cl)cc2)cc2cccnc12	95.1
COc1ccc(/C=C(\C#N)n2nnc3cc(F)c(F)cc32)cc1	19.6

# map each compound to its growth
1. O=C(/C=C(/C=C/c1ccc2[nH]ccc2c1)OB(F)F)/C=C/c1ccc2[nH]ccc2c1
2. CS(=O)(=O)Nc1cncc(-c2ccc3ncnc(Nc4cncc(Cl)c4)c3c2)c1

A:
[14.3, 95.7]
